Can you tell me Tmax for the items I'm about to list?
# EXPERIMENT_SUMMARY: in vivo
# MEASUREMENT_CONTEXT: male, ICR, mouse, po, 3 mg/kg
Note: unit min is implicit; provide only the numeric part.

Req: Give its Tmax value. Item: CN(C)C(=N)N=C(N)N [Metformin, metformin]
Resp: 30

Req: Give its Tmax value. Item: OC[C@H]1O[C@@H](c2ccc(F)c(Cc3cc4ccccc4s3)c2)[C@H](O)[C@@H](O)[C@@H]1O [Ipragliflozin, ipragliflozin]
Resp: 30

Req: Give its Tmax value. Item: Cn1c(=O)cc(N2CCC[C@@H](N)C2)n(Cc2ccccc2C#N)c1=O [Alogliptin, alogliptin]
Resp: 60

Req: Give its Tmax value. Item: CC(C)Cc1ccc(C(C)C(=O)O)cc1 (centres unmarked) [Ibuprofen, ibuprofen]
Resp: 60

Req: Give its Tmax value. Item: N#C[C@@H]1CCCN1C(=O)CNC12CC3CC(CC(O)(C3)C1)C2 [Vildagliptin, vildagliptin]
Resp: 30

Req: Give its Tmax value. Item: CC1(C)S[C@@H]2[C@H](NC(=O)[C@H](N)c3ccc(O)cc3)C(=O)N2[C@H]1C(=O)O [Amoxicillin, amoxicillin]
Resp: 60

Req: Give its Tmax value. Item: COc1ccc2c(c1)c(CC(=O)O)c(C)n2C(=O)c1ccc(Cl)cc1 [Indomethacin, indomethacin]
Resp: 60

Req: Give its Tmax value. Item: Cc1ccc(-c2cc(C(F)(F)F)nn2-c2ccc(S(N)(=O)=O)cc2)cc1 [Celecoxib, celecoxib]
Resp: 30
